# System: Human immunodeficiency virus 2
# Test Name: Antiviral activity against HIV2 ROD in CEM cells
# Format: functional, organism-based
# Experimental Context: Human immunodeficiency virus 2, ROD, CCRF-CEM
Consider the following compounds; for each one, report its log10 EC50.
Would you kindly interpret these values as log10 of EC50 expressed in nM?

The reported log10 EC50 of the compound COC(=O)[C@H]1CCCN1P(=O)(OC[C@H]1C=C[C@@H](n2cnc3c(N)ncnc32)C1)Oc1ccccc1 (some centres undefined) was 5.02

log10 EC50 reading for COC(=O)[C@H](C)NP(=O)(OC[C@H]1C=C[C@@H](n2cnc3c(N)ncnc32)C1)Oc1ccc(Cl)c(Cl)c1 (some centres undefined) : 2.04

The recorded log10 EC50 for entry COC(=O)[C@H](CC(C)C)NP(=O)(OC[C@H]1C=C[C@@H](n2cnc3c(N)ncnc32)C1)Oc1ccccc1 (some centres undefined) equals 2.75

Item: COC(=O)c1ccc(OP(=O)(N[C@@H](C)C(=O)OC)OC[C@H]2C=C[C@@H](n3cnc4c(N)ncnc43)C2)cc1 (some centres undefined) | log10 EC50: 2.11

The reported value for CC(C)OC(=O)[C@H](C)NP(=O)(OC[C@H]1C=C[C@@H](n2cnc3c(N)ncnc32)C1)Oc1ccccc1 (some centres undefined) in terms of log10 EC50 is 2.40

The compound listed as COC(=O)[C@H](C)NP(=O)(OC[C@H]1C=C[C@@H](N2C=NC3C(N)=NC=NC32)C1)Oc1ccc(C(F)(F)F)cc1 (some centres undefined) has a reported log10 EC50 of 1.78

# compound CCOC(=O)c1ccccc1OP(=O)(N[C@@H](C)C(=O)OC)OC[C@H]1C=C[C@@H](n2cnc3c(N)ncnc32)C1 (some centres undefined) ; its log10 EC50 = 1.76

Reported log10 EC50 for C[C@H](NP(=O)(OC[C@H]1C=C[C@@H](n2cnc3c(N)ncnc32)C1)Oc1ccccc1)C(=O)OCC(C)(C)C (some centres undefined) was 1.92

// COC(=O)[C@H](NP(=O)(OC[C@H]1C=C[C@@H](n2cnc3c(N)ncnc32)C1)Oc1ccccc1)C(C)C (some centres undefined) : log10 EC50 value = 4.00
